# protein stability index per entry
B1: KRT71 (parent)
chain: ELRNVQDVVEDYKKRYEEEINKRT

# Variants of: B1
# TEST_DESCRIPTION: protein stability index of a GFP-peptide fusion (GPS, HEK-293T) (PSI 1-6); higher = more stable;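 also: lentivirally expressed fusions sorted by FACS into six bins by GFP to DsRed ratio, PSI derived from sequencing read proportions per bin multiplied by bin number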
# CONDITION_SUMMARY: c terminus: a fixed tail appended
MEASURED_PROPERTY: protein stability index

> print(dat)
    variant.identifier        measured.property  reported
 1                 D7L  protein stability index      3.54
 2                I20H  protein stability index      4.07
 3                I20A  protein stability index      4.88
 4                 D7A  protein stability index      3.68
 5                N21R  protein stability index      3.92
 6                E19I  protein stability index      3.39
 7                 V8H  protein stability index      2.88
 8                E19V  protein stability index      3.48
 9                K13A  protein stability index      4.07
10                R15K  protein stability index      3.22
11                R15N  protein stability index      3.48
12                I20G  protein stability index      4.05
13                R23I  protein stability index      3.72
14                T24W  protein stability index      3.62
15                Y12L  protein stability index      3.22
16                T24G  protein stability index      3.94
17                D11A  protein stability index      3.55
18                I20N  protein stability index         4
19                D11L  protein stability index      3.95
20                E10I  protein stability index      3.54
21                Y16V  protein stability index      3.76
22                Y16L  protein stability index      4.31
23                Y12M  protein stability index      4.56
24                T24V  protein stability index      3.69
25                E18T  protein stability index      3.93
26                T24K  protein stability index      4.43
27                R23P  protein stability index      3.56
28                K14R  protein stability index      3.51
29                 V9A  protein stability index      3.69
30                E19Q  protein stability index      2.54
31                N21I  protein stability index      1.94
32                 Q6G  protein stability index      3.36
33                 Q6S  protein stability index      4.01
34                 D7E  protein stability index       3.1
35                 L2M  protein stability index      3.99
36                E19D  protein stability index      3.24
37                 D7H  protein stability index      3.13
38                T24L  protein stability index      3.58
39                 V5R  protein stability index      3.22
40                 N4D  protein stability index      4.68
41                T24S  protein stability index       3.4
42                E10N  protein stability index      4.22
43                R15F  protein stability index      3.67
44                K14T  protein stability index      3.65
45                 V8L  protein stability index       4.3
46                K22W  protein stability index       3.9
47                 V8G  protein stability index      3.49
48                E19W  protein stability index      2.92
49                N21T  protein stability index      2.89
50                 L2C  protein stability index      3.53
51                 N4I  protein stability index      4.37
52                K14M  protein stability index      3.82
53                 V8S  protein stability index      4.53
54                 V8Q  protein stability index      4.19
55                E10R  protein stability index         4
56                D11M  protein stability index      3.31
57                E10K  protein stability index      3.14
58                 V8D  protein stability index      4.42
59                 N4S  protein stability index      4.32
60                 V5Q  protein stability index      4.24
61                 V9W  protein stability index      4.36
62                Y16A  protein stability index      4.43
63                 V8C  protein stability index      3.77
64                 R3H  protein stability index      2.78
65                K13Y  protein stability index       3.2
66                K14G  protein stability index      4.76
67                K13E  protein stability index      4.74
68                 D7V  protein stability index      3.23
69                R15W  protein stability index      3.67
70                 N4K  protein stability index      4.51
71                E10Q  protein stability index      3.13
72                 L2D  protein stability index      5.94
73                 Q6H  protein stability index      3.15
74                 E1L  protein stability index       3.9
75                T24I  protein stability index      4.02
76                 R3T  protein stability index      3.35
77                E19S  protein stability index      3.69
78                Y16R  protein stability index      3.59
79                E18Q  protein stability index       3.3
80                 V5C  protein stability index      3.98
81                 Q6W  protein stability index      3.41
82                 V5N  protein stability index      3.59
83                I20S  protein stability index      4.25
84                Y16E  protein stability index      4.33
85                 N4M  protein stability index      3.77
86                 E1C  protein stability index      2.23

Data origin, for the record: the supplement of paper PMC10567573
